Dipeptidyl peptidase 9 (Homo sapiens, UniProt Q86TI2): reported pIC50 for various compounds.
Sequence (Q86TI2 whole entry): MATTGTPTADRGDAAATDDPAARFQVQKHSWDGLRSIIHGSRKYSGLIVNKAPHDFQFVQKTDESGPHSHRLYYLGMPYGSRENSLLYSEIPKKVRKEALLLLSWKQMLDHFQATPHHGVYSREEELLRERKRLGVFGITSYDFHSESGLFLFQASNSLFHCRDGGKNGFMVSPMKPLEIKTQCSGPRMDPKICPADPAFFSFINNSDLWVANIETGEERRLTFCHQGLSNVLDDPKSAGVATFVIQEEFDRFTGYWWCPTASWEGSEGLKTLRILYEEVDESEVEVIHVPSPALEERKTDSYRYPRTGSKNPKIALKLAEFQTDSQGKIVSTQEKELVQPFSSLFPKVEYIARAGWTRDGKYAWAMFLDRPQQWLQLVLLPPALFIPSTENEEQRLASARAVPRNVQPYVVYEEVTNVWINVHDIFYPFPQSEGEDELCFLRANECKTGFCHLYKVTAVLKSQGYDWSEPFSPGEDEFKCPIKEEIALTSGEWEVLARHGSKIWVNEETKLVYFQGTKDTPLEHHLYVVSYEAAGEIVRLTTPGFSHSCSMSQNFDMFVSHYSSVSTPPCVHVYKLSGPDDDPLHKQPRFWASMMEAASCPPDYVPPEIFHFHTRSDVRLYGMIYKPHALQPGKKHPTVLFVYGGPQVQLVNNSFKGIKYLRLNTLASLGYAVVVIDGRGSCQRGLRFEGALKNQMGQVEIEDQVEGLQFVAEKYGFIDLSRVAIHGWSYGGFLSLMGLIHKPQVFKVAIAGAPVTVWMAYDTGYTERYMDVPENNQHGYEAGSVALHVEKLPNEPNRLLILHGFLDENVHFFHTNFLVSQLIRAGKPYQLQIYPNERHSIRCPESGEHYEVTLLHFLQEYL
pIC50: −log10 of the molar value.

Some compounds with known pIC50 results, for comparison:
{"compound": "N[C@@H](Cc1c[nH]cn1)C(=O)N1CCCC1", "target under test": "Dipeptidyl peptidase 9 (Homo sapiens, UniProt Q86TI2)", "observed measurement": "< 4.00"}
{"compound": "CC[C@H](C)[C@H](N)C(=O)N1CCC1", "target under test": "Dipeptidyl peptidase 9 (Homo sapiens, UniProt Q86TI2)", "observed measurement": "< 4.00"}
{"compound": "CC[C@H](C)[C@H](N)C(=O)N1CCC(O)C1 (stereo partly specified)", "target under test": "Dipeptidyl peptidase 9 (Homo sapiens, UniProt Q86TI2)", "observed measurement": "< 4.00"}
{"compound": "NCCCC[C@H](N)C(=O)N1CCCc2ccccc21", "target under test": "Dipeptidyl peptidase 9 (Homo sapiens, UniProt Q86TI2)", "observed measurement": "< 4.00"}

Dear colleague, please send me the reported pIC50 for `CC[C@H](C)[C@H](N)C(=O)N1CC=CCC1` when you can.
< 4.30

Provide one value: measured pIC50 of `NCC(=O)N1CCCC1`
< 3.00

====

pIC50: −log10 of the molar value.
Below are compounds with their pIC50 as measured on UniProt P27487.
readout kind: pIC50

{"compound": "CC[C@H](C)[C@H](N)C(=O)N1CC=CC1", "observed measurement": 4.82}

1 = N=C(NCCC[C@H](NC(=O)OCc1ccccc1)C(=O)N1CCCC1)NC(=O)OCc1ccccc1
2 = NCCCC[C@H](N)C(=O)N1CCC(O)C1 (stereo partly specified)
Please indicate which entry, 1 or 2 , has the lower recorded pIC50 value. Indicate your choice by writing its label.
2

====

# target under test: Dipeptidyl peptidase 4 (Homo sapiens)
# Sequence (P27487 whole entry): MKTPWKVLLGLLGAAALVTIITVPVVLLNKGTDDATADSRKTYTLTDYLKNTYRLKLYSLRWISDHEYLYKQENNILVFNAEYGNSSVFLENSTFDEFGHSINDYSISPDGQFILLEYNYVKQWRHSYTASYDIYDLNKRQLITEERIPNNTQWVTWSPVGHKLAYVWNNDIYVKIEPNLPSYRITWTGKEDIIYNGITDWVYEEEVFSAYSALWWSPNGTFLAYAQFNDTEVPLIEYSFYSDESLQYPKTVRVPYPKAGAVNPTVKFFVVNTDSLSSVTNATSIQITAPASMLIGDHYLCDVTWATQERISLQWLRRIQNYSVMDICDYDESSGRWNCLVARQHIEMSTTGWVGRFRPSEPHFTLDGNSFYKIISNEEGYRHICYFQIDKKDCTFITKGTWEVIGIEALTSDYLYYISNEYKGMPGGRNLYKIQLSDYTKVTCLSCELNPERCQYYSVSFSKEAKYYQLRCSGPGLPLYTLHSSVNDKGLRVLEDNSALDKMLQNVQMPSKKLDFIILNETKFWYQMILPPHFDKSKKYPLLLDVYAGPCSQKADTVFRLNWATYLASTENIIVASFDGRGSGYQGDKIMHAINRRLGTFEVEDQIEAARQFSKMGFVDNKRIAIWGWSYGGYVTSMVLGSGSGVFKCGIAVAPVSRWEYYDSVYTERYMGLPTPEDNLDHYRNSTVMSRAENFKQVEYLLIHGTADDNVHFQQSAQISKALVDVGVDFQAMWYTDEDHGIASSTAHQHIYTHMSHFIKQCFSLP
Consider the following molecules and their measured IC50 readings.

{"molecular string": "CC[C@H](C)[C@H](N)C(=O)NC1CCCC1", "readout kind": "IC50", "observed measurement": "> 1 mM"}
{"molecular string": "N[C@@H](CCCCNC(=O)OCc1ccccc1)C(=O)N1CCCc2ccccc21", "readout kind": "IC50", "observed measurement": "> 1 mM"}

In the following, a different molecule is considered.
Name the recorded IC50 of the molecule listed here: `N[C@@H](CCC(=O)O)C(=O)N1CCCC1`
> 1 mM

Source of measurements: ChEMBL document CHEMBL1154997
